For reference, the following pIC50 results for Cytochrome P450 3A4 (Homo sapiens) were taken from various sources.
As a rule, pIC50 stands for the negative log10 of the concentration, concentration in M.

Worked examples, 3 molecules total:
Exercise: Fill in: pIC50 of CN1CCN(c2ncc(S(=O)(=O)N3CCN(Cc4cncn4CCOc4ccc(F)cn4)CC3)s2)CC1 is ___
Solution: 8.64

Exercise: Fill in: pIC50 of C[C@H](c1ccc(F)cc1)n1cncc1CN1CCN(S(=O)(=O)c2cnc(N3CC[C@@H](N)[C@H](F)C3)s2)CC1 is ___
Solution: 9.00

Exercise: Fill in: pIC50 of CC(C)[C@@H](CN1CCN(c2cccc(O)c2)[C@@H](C)C1)NC(=O)c1ccc(B2C=CCCN2)cc1 is ___
Solution: 4.80

We next turn to a different molecule, shown below.
Exercise: Fill in: pIC50 of CC(C)c1nc(CN(C)C(=O)N[C@H](C(=O)N[C@H](CC[C@H](Cc2ccccc2)NC(=O)OC(C)(C)C)Cc2ccccc2)C(C)C)cs1 is ___
Solution: 5.82

----------
For reference, the following pIC50 results for UniProt:P08684 were taken from various sources.
As a rule, pIC50 stands for the negative log10 of the concentration, concentration in M.

Exercise: Entry CC(=O)NCC(=O)Nc1ncc2cc1O[C@H](C)c1cc(F)ccc1C(=O)N(C)Cc1nn(C)c(C#N)c1-2 , system UniProt:P08684: what pIC50 was measured?
Solution: 3.55

Exercise: Entry O=C(N[C@H](CC[C@H](Cc1ccccc1)NC(=O)[C@@H]1C[C@@H](O)CN1C(=O)OCc1ccccc1)Cc1ccccc1)OCc1cncs1 , system UniProt:P08684: what pIC50 was measured?
Solution: 6.68

Exercise: Entry COc1ccccc1-c1ccccc1[C@H](C)n1cncc1C(=O)N1CCC2NCCO[C@@H]2C1 (stereo partly shown) , system UniProt:P08684: what pIC50 was measured?
Solution: 8.30

We next turn to a different molecule, shown below.
Exercise: Entry CO[C@H]1CN(C(=O)c2cncn2[C@@H](C)c2ccccc2-c2ccc(F)cc2)CC[C@@H]1N1CCOC1=O , system UniProt:P08684: what pIC50 was measured?
Solution: 8.04

----------
pIC50: −log10 of the molar value.
For reference, the following pIC50 results for UniProtKB P08684 were taken from various sources.

Exercise: Fill in: pIC50 of CNC(=O)c1cc(Cc2nnc(Nc3ccc(Cl)cc3)c3ccccc23)ccn1 is ___
Solution: 5.66

Exercise: Fill in: pIC50 of Cc1cnc(Nc2cnn(C3CCN(C)CC3)c2)nc1-c1ccc(C(=O)N[C@@H](C)C#N)cc1 is ___
Solution: < 4.30

Exercise: Fill in: pIC50 of COc1cc2c(NC3CCN(C(C)C)CC3)nc(-n3ccnc3)nc2cc1OCCCN1CCCC1 is ___
Solution: < 4.00

Exercise: Fill in: pIC50 of NC(=O)CNC(=O)/C=C1/c2ccccc2N(C(=O)c2ccc(OCC3CC3)cc2C(F)(F)F)CCC1(F)F is ___
Solution: < 4.30

Exercise: Fill in: pIC50 of CCOc1ncccc1-c1ccccc1[C@H](C)n1cncc1C(=O)N1CCC2NCCO[C@@H]2C1 (some centres unmarked) is ___
Solution: 8.02

Exercise: Fill in: pIC50 of CC(=O)Nc1ncc2cc1O[C@H](C)c1cc(F)ccc1C(=O)N(C)Cc1nn(C)c(C#N)c1-2 is ___
Solution: 4.85

Exercise: Fill in: pIC50 of Cc1ccc(NC(=O)c2cc(F)cnc2NCc2ccnc3[nH]ccc23)cc1C(F)(F)F is ___
Solution: < 4.70

Exercise: Fill in: pIC50 of CSc1ccc2nc(C(O)(c3ccncn3)C(C)C)ccc2c1 (centres unmarked) is ___
Solution: 4.72

Exercise: Fill in: pIC50 of CC(C)Oc1ccc(S(=O)(=O)N2C[C@@H](C)[C@@H](n3nc(CC(=O)O)c4ccc(F)cc43)C2)c(F)c1 is ___
Solution: < 4.70

Exercise: Fill in: pIC50 of COc1cnc(C(=O)Nc2ccc(F)c([C@@]3(C)N=C(N)O[C@H]([C@H](C)F)[C@@H]3F)c2)cn1 is ___
Solution: ≤ 4.70

Exercise: Fill in: pIC50 of COc1ccc(C(=O)Nc2ccc(F)c([C@@]3(C)N=C(N)SCC34CC(F)(F)C4)c2)nc1 is ___
Solution: ≤ 5.00

Exercise: Fill in: pIC50 of C[C@@H](C#N)NC(=O)c1ccc(-c2nc(Nc3cnn(C4CCN(C)CC4)c3)ncc2Cl)cc1 is ___
Solution: < 4.30

Exercise: Fill in: pIC50 of CC(C)(C)c1ccc(NC(=O)c2cccnc2NCc2ccnc3[nH]ccc23)cc1 is ___
Solution: < 4.70

Exercise: Fill in: pIC50 of C[C@@H](c1ccccc1-c1ccc(Cl)nc1)n1cncc1C(=O)N1CCC2NCCO[C@@H]2C1 (some centres unmarked) is ___
Solution: 8.15
